# test system: VIM-2 metallo β-lactamase (Pseudomonas aeruginosa, UniProt Q9K2N0)
# test method notes: β-Lactamase inhibition enzyme assay, VIM-2
# assay conditions: Nitrocefin 100 μM as substrate, 486 nm; 15 min at 37° C. with enzyme, PBS pH 7.4; read-out: Class B VIM-2 IC50
pIC50: −log10 of the molar value.
Recorded pIC50 values for a group of compounds are listed next.
measurement name: pIC50

INSERT INTO assay_data (chem_smiles, experimental_value) VALUES
  ('NC1=Nc2cc(C(=O)N[C@H]3Cc4cccc(C(=O)O)c4OB3O)ccc2CN1', '5.00 to 6.00'),
  ('Cn1ccc2ccc(C(=O)N[C@H]3Cc4cccc(C(=O)O)c4OB3O)cc21', '6.00 to 7.00'),
  ('O=C(N[C@H]1Cc2cccc(C(=O)O)c2OB1O)c1ccc2cc[nH]c2c1', '6.00 to 7.00');
